# Tested on: OVCAR-8 ovarian
# method description: NCI tumour cell line growth inhibition, 48 h
Catalogue of TGI readings, one per entry.
measurement kind: TGI

>>> result("OCc1ccc(Oc2c3ccccc3nc3occc23)cc1")
"> 100 µM"
>>> result("Cc1cn2c(=O)n(c1=O)Cc1ccccc1C2")
"> 100 µM"
>>> result("CN(C)CCOC1(CC2CCCCC2)CCC(C(C)(C)C)CC1 (stereo unspecified)")
"19.3 µM"
>>> result("COc1ccccc1NC(=O)C1=C(C)NC(C)=C(C(=O)Nc2ccccc2OC)C1c1cccc2c1OCO2")
"> 100 µM"
>>> result("CS(=O)(=O)O.[Ag]")
"> 100 µM"
>>> result("O=C1/C(=C/c2ccco2)NC(=S)N1CN1CCOCC1")
"> 100 µM"
>>> result("CC(C)C(C/C=C1\\CC(CO)(COC(=O)CC(C(C)C)C(C)C)OC1=O)C(C)C (stereo unspecified)")
"33 µM"
>>> result("CC(=O)OC12CC(C)C3(O)C4C=C(C)C(=O)[C@@]4(O)CC(CO)=C[C@H]3C1C2(C)C (stereo partly specified)")
"> 1000 µM"
>>> result("CC1CCC2(CC1)N=C1CCC(C)CC1C1(CCC(C)CC1)N2 (stereo unspecified)")
"> 100 µM"
>>> result("CCCCCCOc1ccc(NC2=C(Cl)C(=O)c3ncccc3C2=O)cc1")
"> 10 µM"
>>> result("Clc1ncnc2c1ncn2CCCCCCCCCCCCn1cnc2c(Cl)ncnc21")
"23.8 µM"
